Data credit: the DeepSol protein solubility set

- protocol: soluble on expression in E. coli; label from the status in PepcDB or PDB records
metric.name: soluble on expression in E. coli

INSERT INTO results (residue_string, metric_name, reading) VALUES
  ('MGSDKIHHHHHHATKTEQIPVNKTYAACPQNWIGVENKCFYFSEYPSNWTFAQAFCMAQEAQLARFDNQDELNFLMRYKANFDSWIGLHRESSEHPWKWTDNTEYNNTIPIRGEERFAYLNNNGISSTRIYSLRMWICSKL', 'soluble on expression in E. coli', 'not soluble'),
  ('MGSDKIHHHHHHMKIDRLIGIITILLQKERATIPQLAERFEVSCRTIQRDIDAIGQAGIPIVSRQGYGGGLSIADGYKLDKTVLTKKELQAILTGIRSIDSISKTTYGQTLIEKFANGKAAVLAEQDMILIDLASWYQDSLSDKIEQLRQAIFNREKVFFVYYSDKGESERLIEPYLILFKWAAWYVYGYCLTKNEYRLFKLNRLWKLKNTNLTYIPRNIPEGKLEFERYFQTEEIRLTALFDARAKYRLIEEYGPECFTVSEPDKLLFQRSFSNPEYLLQWLLSFGDRVRVIEPPELKANIQEHAKNMLRQDD', 'soluble on expression in E. coli', 'not soluble'),
  ('MLLRKGTVYVLVIRADLVNAMVAHARRDHPDEACGVLAGPEGSDRPERHIPMTNAERSPTFYRLDSGEQLKVWRAMEDADEVPVVIYHSHTATEAYPSRTDVKLATEPDAHYVLVSTRDPHRHELRSYRIVDGAVTEEPVNVVEQYLEHHHHHH', 'soluble on expression in E. coli', 'not soluble');

###

- protocol: soluble on expression in E. coli; label from the status in PepcDB or PDB records
metric.name: soluble on expression in E. coli

INSERT INTO measurements (residue_string, metric_name, reading) VALUES
  ('MYEYCRKRGLYPDAESYPWKSNAHYWLVTNLYQNMRANALADAELRRKAADELTCMTARINRGETIPEPVKQLPVMGGRPLNRAQALAKIAEIKAKFGLKGASVLEHHHHHH', 'soluble on expression in E. coli', 'not soluble'),
  ('MSLQTAAAPTPAPVAAAPALPQGQVNIAVGSLKCKAEKCYGGLGEGIGDALTTALLNTGKFAVYERENTAQLTEEAFLNGGATFQGADVLIFGAITQYEPQASSGGLSFMGVSVGKKSSTIAMDLRIVDAKTRRIIGATQVQGKAEGNNFNVSGLLPVNVGAQSSPQLEAAISQMLNNAAQQLLLKVPASYYKEEGHHHHHH', 'soluble on expression in E. coli', 'soluble'),
  ('GSGNRTRKRRMINASVWMPPMENEEKNRKNHQSITSSQHSLLEASYDGYIKRQRNELQHYSLYPNPQGYGNGNDFLGDFNHTNLQIPTEPEPESPIKLHTEAAGSYAITEPITRESVNIIDPRHNRTVLHWIASNSSAEKSEDLIVHEAKECIAAGADVNAMDCDENTPLMLAVLARRRRLVAYLMKAGADPTIYNKSERSALHQAAANRDFGMMVYMLNSTKLKGDIEELDRNGMTALMIVAHNEGRDQVASAKLLVEKGAKVDYDGAARKDSEKYKGRTALHYAAQVSNMPIVKYLVGEKGSNKDKQDEDGKTPIMLAAQEGRIEVVMYLIQQGASVEAVDATDHTARQLAQANNHHNIVDIFDRCRPERE', 'soluble on expression in E. coli', 'soluble'),
  ('SNAKVTVGKSAPYFSLPNEKGEKLSRSAERFRNRYLLLNFWASWCDPQPEANAELKRLNKEYKKNKNFAMLGISLDIDREAWETAIKKDTLSWDQVCDFTGLSSETAKQYAILTLPTNILLSPTGKILARDIQGEALTGKLKELLKTE', 'soluble on expression in E. coli', 'soluble'),
  ('MGSDKIHHHHHHMMFEFNFARAMASLREEYAKDAKINIQHVWQNETAAVIAKALATEVSFDNAMFVENKPMRISDQQIRQLPVEAQKDLQQKILQNAANGIGFLYGSHLVGGLDGKPSPELLTSLHRFINSPDMFKFIQSITGIEGICYASLQASRYIQGNFLTRHNDVVESEGRKVAFVFGFTPEWHPDWGGLLQFYTPKGVLTDTWVPTFNNLALFDVHHPHSVSFVAPFAKRPRFSVTGWFRTIAPSK', 'soluble on expression in E. coli', 'not soluble');

Okay, next one:
Query MGSDKIHHHHHHVSLLGEERKSQIMQWLEEEGKVMTKDLIDRLDVSGETVRRYLEELERERQLKRVYGGAIYQGGKQESPISRRTDQLSRRLARYAKGWLADYSCIFLGKGEPVEHLLPYLSGSATIVTNSLSIASHLEQCRETGPFHGEIRLLGGTVDSYGQTVGVEVLQALDAYAFDASFLTFDGAEIERGFVSDDIESSLIQKAIIGRTKDVYAFLACDEFEGNRKYKVAEFRRAKIVLSPSTYPPSWEMKLFNERVNWTVVS yields soluble on expression in E. coli of not soluble
